molecular target: T1, pm3 (Y17 sulfated; Y15 and Y16 not sulfated); test: ELISA on coated peptide [cont.]
T1 construct: also called sulfated CCR8 N-terminal peptide pm3
T1 sequence (peptide, as listed by the source): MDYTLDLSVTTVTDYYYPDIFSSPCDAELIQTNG
readoutName: binding result

binder="anti-CCR8 mAb 1-1 (antibody, V domains shown, Murine hybridoma mAb) VH: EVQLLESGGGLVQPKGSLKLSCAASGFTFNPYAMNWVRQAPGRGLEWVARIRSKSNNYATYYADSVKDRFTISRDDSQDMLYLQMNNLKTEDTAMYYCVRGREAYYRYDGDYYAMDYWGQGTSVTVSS VL: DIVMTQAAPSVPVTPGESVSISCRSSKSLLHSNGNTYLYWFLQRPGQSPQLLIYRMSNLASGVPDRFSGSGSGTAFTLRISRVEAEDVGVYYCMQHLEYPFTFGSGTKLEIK" val=binds
binder="anti-CCR8 mAb 1-9 (antibody, V domains shown, Murine hybridoma mAb) VH: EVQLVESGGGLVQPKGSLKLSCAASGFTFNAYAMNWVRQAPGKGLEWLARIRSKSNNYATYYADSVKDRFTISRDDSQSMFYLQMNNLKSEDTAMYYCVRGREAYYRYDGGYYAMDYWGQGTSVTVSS VL: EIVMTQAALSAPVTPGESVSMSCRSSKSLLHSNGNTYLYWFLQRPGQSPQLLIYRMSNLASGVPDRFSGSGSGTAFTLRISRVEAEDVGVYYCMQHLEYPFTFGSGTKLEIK" val=binds
binder="anti-CCR8 mAb 1-15 (antibody, V domains shown, Murine hybridoma mAb) VH: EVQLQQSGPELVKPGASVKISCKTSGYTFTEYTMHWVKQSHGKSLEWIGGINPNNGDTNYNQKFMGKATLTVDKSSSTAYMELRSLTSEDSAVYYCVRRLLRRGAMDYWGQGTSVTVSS VL: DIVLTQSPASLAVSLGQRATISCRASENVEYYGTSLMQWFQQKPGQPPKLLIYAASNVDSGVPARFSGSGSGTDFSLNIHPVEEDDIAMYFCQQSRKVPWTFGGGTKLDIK" val=binds
binder="anti-CCR8 mAb 1-2 (antibody, V domains shown, Murine hybridoma mAb) VH: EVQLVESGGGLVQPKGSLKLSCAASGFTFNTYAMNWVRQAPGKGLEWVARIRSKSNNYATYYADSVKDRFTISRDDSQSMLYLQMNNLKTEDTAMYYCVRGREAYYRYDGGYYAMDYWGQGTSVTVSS VL: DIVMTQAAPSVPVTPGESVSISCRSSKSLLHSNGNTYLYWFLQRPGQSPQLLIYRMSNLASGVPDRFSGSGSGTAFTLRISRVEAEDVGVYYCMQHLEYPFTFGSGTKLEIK" val=binds
